Provenance of the data: patent US11008323B2

Structures can show the parent of a compound that is named as a salt.

COMPOUND	melting point
CN1C(=O)c2cccn2-c2cc(-c3ccncc3)ccc2C12CC2 (as salt: hydrochloride)	> 250 °C
Cc1ncccc1-c1cccc2c1-n1cccc1C(=O)N(C)C21CC1 (as salt: hydrochloride)	250 °C
CN1C(=O)c2cccn2-c2cc(-c3ccc4nccn4c3)ccc2C12CC2 (as salt: hydrochloride)	> 250 °C
COc1ccc(-c2ccc3c(c2)-n2nc(-c4ccccc4)cc2C(=O)N(C)C32CC2)cc1	> 250 °C
CC(=O)N1CC=C(c2ccc3c(c2)-n2cccc2C(=O)N(C)C32CC2)CC1	101 to 110 °C
Cc1ncccc1-c1ccc2c(c1)-n1cc(-c3ccccc3)cc1C(=O)N(C)C21CC1 (as salt: hydrochloride)	174 to 180 °C
Cc1ncccc1-c1ccc2c(c1)-n1cc(-c3ccnn3C)cc1C(=O)N(C)C21CC1 (as salt: hydrochloride)	229 to 237 °C
CN1C(=O)c2cc(-c3ccccc3)nn2-c2cc(-c3cn[nH]c3)ccc2C12CC2	199 to 208 °C
CN1C(=O)c2cc(-c3ccccc3)cn2-c2cc(-c3ccncc3)ccc2C12CC2 (as salt: hydrochloride)	220 to 230 °C
CN1C(=O)c2cc(-c3ccccc3)nn2-c2cc(-c3cc[nH]n3)ccc2C12CC2	218 to 224 °C
Cc1ncccc1-c1ccc2c(c1)-n1nc(-c3ccccc3)cc1C(=O)N(C)C21CC1 (as salt: hydrochloride)	185 to 206 °C
CN1C(=O)c2cccn2-c2cc(-c3cnn(C)c3)ccc2C12CC2	75 to 83 °C
Cc1ncccc1-c1ccc2c(c1)-n1cc(-c3ccc(F)cc3)cc1C(=O)N(C)C21CC1 (as salt: hydrochloride)	226 to 230 °C
CN1C(=O)c2cc(-c3ccccc3)cn2-c2cc(-c3cccnc3C(F)(F)F)ccc2C12CC2	199 to 204 °C
Cc1ncccc1-c1ccc2c(c1)-n1cncc1C(=O)N(C)C2 (as salt: hydrochloride)	158 to 170 °C
CCCc1ncccc1-c1ccc2c(c1)-n1cccc1C(=O)N(C)C21CC1 (as salt: hydrochloride)	150 to 157 °C
Cc1cncc(-c2ccc3c(c2)-n2cc(-c4ccccc4)cc2C(=O)N(C)C32CC2)c1 (as salt: hydrochloride)	212 to 220 °C
[2H]C([2H])([2H])N1C(=O)c2cccn2-c2cc(-c3ccc(F)nc3)ccc2C12CC2	166 to 178 °C
Cc1nc(F)ccc1-c1ccc2c(c1)-n1cccc1C(=O)N(C)C21CC1	198 to 202 °C
CN1C(=O)c2cc(-c3ccccc3)cn2-c2cc(-c3cccc(C(=O)O)c3)ccc2C12CC2	> 250 °C
CN1C(=O)c2cccn2-c2c(ccc(-c3ccc(F)nc3)c2F)C12CC2	153 to 157 °C
CN1C(=O)c2cc(-c3ccccc3)cn2-c2cc(-c3cnccn3)ccc2C12CC2	130 to 141 °C
CN1C(=O)c2cc(-c3ncc[nH]3)cn2-c2cc(-c3ccc(F)nc3)ccc2C12CC2	> 250 °C
CN1C(=O)c2cccn2-c2cc(-c3cccc(F)n3)ccc2C12CC2	106 to 117 °C
Cc1ccc(-c2ccc3c(c2)-n2cc(CO)cc2C(=O)N(C)C32CC2)cn1	144 to 154 °C
Cc1ncccc1-c1ccc2c(c1)-n1cc(N(C)C)cc1C(=O)N(C)C21CC1 (as salt: hydrochloride)	120 to 134 °C
CN1C(=O)c2cccn2-c2cc(-c3ccnc(C(F)(F)F)c3)ccc2C12CC2	169 to 174 °C
CN1C(=O)c2cccn2-c2cc(-c3cccnc3)ccc2C12CC2 (as salt: hydrochloride)	> 250 °C
CCc1ncccc1-c1ccc2c(c1)-n1cc(CO)cc1C(=O)N(C)C21CC1 (as salt: hydrochloride)	> 250 °C
CN1C(=O)c2cc(-c3ccccc3)nn2-c2ccccc2C12CC2	212 to 218 °C

---

target: human mGluR3 (hmGluR3) (Homo sapiens, UniProt Q14832); test: Human mGluR3 positive allosteric modulator evaluation using Ca++ functional assay; conditions: hmGluR3 transiently over-expressed in HEK-293 cells; stimulated by EC50 glutamate concentration; intracellular Ca2+ (Fluo4AM, FLIPR Tetra)
Sequence (Q14832 23-879): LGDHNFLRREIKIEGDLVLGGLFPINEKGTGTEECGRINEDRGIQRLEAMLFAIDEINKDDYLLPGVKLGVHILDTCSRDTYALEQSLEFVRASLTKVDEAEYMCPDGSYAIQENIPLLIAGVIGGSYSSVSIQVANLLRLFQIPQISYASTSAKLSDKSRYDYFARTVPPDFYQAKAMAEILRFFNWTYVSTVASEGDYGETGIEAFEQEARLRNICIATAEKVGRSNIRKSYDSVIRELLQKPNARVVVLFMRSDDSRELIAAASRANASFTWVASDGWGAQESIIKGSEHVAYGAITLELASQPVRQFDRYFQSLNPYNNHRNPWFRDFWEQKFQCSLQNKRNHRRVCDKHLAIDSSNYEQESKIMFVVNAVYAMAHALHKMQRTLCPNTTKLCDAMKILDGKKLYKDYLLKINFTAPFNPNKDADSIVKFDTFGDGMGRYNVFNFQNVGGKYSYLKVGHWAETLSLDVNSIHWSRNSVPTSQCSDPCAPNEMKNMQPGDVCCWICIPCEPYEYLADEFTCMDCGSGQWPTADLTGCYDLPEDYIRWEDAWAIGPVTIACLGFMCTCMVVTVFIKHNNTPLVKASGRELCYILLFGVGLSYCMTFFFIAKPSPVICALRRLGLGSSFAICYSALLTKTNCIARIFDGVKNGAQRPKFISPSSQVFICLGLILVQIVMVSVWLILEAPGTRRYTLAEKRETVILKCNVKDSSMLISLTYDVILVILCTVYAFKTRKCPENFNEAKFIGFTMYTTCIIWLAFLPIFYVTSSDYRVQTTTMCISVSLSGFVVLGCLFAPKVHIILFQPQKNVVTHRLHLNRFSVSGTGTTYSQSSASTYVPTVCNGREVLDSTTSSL
pEC50: −log10 of the molar value.
ENDPOINT: pEC50

COMPOUND	ENDPOINT	RESULT
Cc1ccc(-c2ccc3c(c2)-n2cc(Br)cc2C(=O)N(C)C32CC2)cn1 [Example 18]	pEC50	> 7.00
Cc1nc(F)ccc1-c1ccc2c(c1)-n1cccc1C(=O)N(C)C21CC1 [Example 32]	pEC50	> 7.00
Cc1ncccc1-c1ccc2c(c1)-n1cc(Br)cc1C(=O)N(C)C21CC1 [Example 17]	pEC50	6.00 to 7.00
CN1C(=O)c2cccn2-c2cc(-c3ccnc(F)c3)ccc2C12CC2 [Example 34]	pEC50	6.00 to 7.00
Cc1ccc2c(c1)C1(CC1)N(C)C(=O)c1cccn1-2 [Example 87]	pEC50	< 6.00
CCc1ncccc1-c1ccc2c(c1)-n1cc(Br)cc1C(=O)N(C)C21CC1 [Example 19]	pEC50	6.00 to 7.00
COc1ncccc1-c1ccc2c(c1)-n1cc(-c3ccccc3)cc1C(=O)N(C)C21CC1 [Example 116]	pEC50	6.00 to 7.00
CN1C(=O)c2cccn2-c2cc(-c3ccc(C(F)(F)F)nc3)ccc2C12CC2 [Example 60]	pEC50	6.00 to 7.00
Cc1ncccc1-c1ccc2c(c1F)-n1cccc1C(=O)N(C)C21CC1 [Example 75]	pEC50	6.00 to 7.00

---

The following compounds are listed with their measured melting point values.
Structures can show the parent of a compound that is named as a salt.
ENDPOINT: melting point

COMPOUND	ENDPOINT	RESULT
Cc1ccncc1-c1ccc2c(c1)-n1cc(-c3ccccc3)cc1C(=O)N(C)C21CC1 (as salt: hydrochloride)	melting point	205 to 217 °C
CCc1ncccc1-c1ccc2c(c1)-n1cc(-c3ccnn3C)cc1C(=O)N(C)C21CC1 (as salt: hydrochloride)	melting point	187 to 192 °C
CN1C(=O)c2cc(-c3ccccc3)nn2-c2cc(-c3ccc(N)cc3)ccc2C12CC2	melting point	195 to 209 °C
Cc1ncccc1-c1ccc2c(c1)-n1cccc1C(=O)N(C)C2C (stereo not drawn) (as salt: hydrochloride)	melting point	140 to 156 °C
Cc1cc(-c2ccc3c(c2)-n2nc(-c4ccccc4)cc2C(=O)N(C)C32CC2)ccn1 (as salt: hydrochloride)	melting point	> 250 °C
COc1ccc(-c2ccc3c(c2)-n2cccc2C(=O)N(C)C32CC2)cc1OC	melting point	150 to 154 °C
Cc1ncccc1-c1ccc2c(c1)-n1cccc1C(=O)N(C)C2(C)C (as salt: hydrochloride)	melting point	230 to 250 °C
CN1C(=O)c2cc(-c3ccccc3)nn2-c2cc(-c3cccc(C#N)c3)ccc2C12CC2	melting point	185 to 190 °C
Cc1ncccc1-c1ccc2c(c1)-n1cc(-c3cnco3)cc1C(=O)N(C)C21CC1 (as salt: hydrochloride)	melting point	158 to 168 °C
CNc1ccc(-c2ccc3c(c2)-n2cc(-c4ccccc4)cc2C(=O)N(C)C32CC2)cn1 (as salt: hydrochloride)	melting point	> 250 °C
Cc1ncccc1-c1ccc2c(c1)-n1cc(-c3cccc(F)c3)cc1C(=O)N(C)C21CC1 (as salt: hydrochloride)	melting point	183 to 190 °C
CN1C(=O)c2cccn2-c2cc(-c3ccc(N4CCOCC4)nc3)ccc2C12CC2 (as salt: hydrochloride)	melting point	191 to 199 °C

---

molecular target: human mGluR3 (hmGluR3) (Homo sapiens, UniProt Q14832); test: Human mGluR3 positive allosteric modulator evaluation using Ca++ functional assay; settings: hmGluR3 transiently over-expressed in HEK-293 cells; stimulated by EC50 glutamate concentration; intracellular Ca2+ (Fluo4AM, FLIPR Tetra)
pEC50: −log10 of the molar value.

CPD SMILES	TARGET OR TEST SYSTEM	pEC50
CN1C(=O)c2cccn2-c2cc(-c3ccnn3C)ccc2C12CC2	human mGluR3 (hmGluR3) (Homo sapiens, UniProt Q14832)	6.00 to 7.00
CN1C(=O)c2cccn2-c2cc(-c3ccc(N4CCOCC4)nc3)ccc2C12CC2	human mGluR3 (hmGluR3) (Homo sapiens, UniProt Q14832)	6.00 to 7.00
CC(=O)c1cc2n(c1)-c1cc(-c3cccnc3C)ccc1C1(CC1)N(C)C2=O	human mGluR3 (hmGluR3) (Homo sapiens, UniProt Q14832)	6.00 to 7.00
Cc1ncccc1-c1ccc2c(c1)-n1cc(-c3ccccc3)cc1C(=O)N(C)C21CC1	human mGluR3 (hmGluR3) (Homo sapiens, UniProt Q14832)	> 7.00
Cc1ncccc1-c1ccc2c(c1)-n1cc(-c3cnco3)cc1C(=O)N(C)C21CC1	human mGluR3 (hmGluR3) (Homo sapiens, UniProt Q14832)	> 7.00
CN1C(=O)c2c(Cl)ccn2-c2cc(Br)ccc2C12CC2	human mGluR3 (hmGluR3) (Homo sapiens, UniProt Q14832)	< 6.00
CN1C(=O)c2cccn2-c2ccc(Br)cc2C12CC2	human mGluR3 (hmGluR3) (Homo sapiens, UniProt Q14832)	< 6.00
Cc1ncccc1-c1ccc2c(c1)-n1cncc1C(=O)N(C)C2	human mGluR3 (hmGluR3) (Homo sapiens, UniProt Q14832)	< 6.00
Cc1ncccc1-c1ccc2c(c1)-n1cc(C(=O)O)cc1C(=O)N(C)C21CC1	human mGluR3 (hmGluR3) (Homo sapiens, UniProt Q14832)	6.00 to 7.00
CN1C(=O)c2cc(-c3ccccc3)nn2-c2cc(-c3ccc(Cl)cc3)ccc2C12CC2	human mGluR3 (hmGluR3) (Homo sapiens, UniProt Q14832)	< 6.00
CN1C(=O)c2cccn2-c2cc(-c3cccnc3C3CC3)ccc2C12CC2	human mGluR3 (hmGluR3) (Homo sapiens, UniProt Q14832)	6.00 to 7.00
